Target: Catechol O-methyltransferase (Homo sapiens, UniProt P21964)
Sequence (P21964 whole entry): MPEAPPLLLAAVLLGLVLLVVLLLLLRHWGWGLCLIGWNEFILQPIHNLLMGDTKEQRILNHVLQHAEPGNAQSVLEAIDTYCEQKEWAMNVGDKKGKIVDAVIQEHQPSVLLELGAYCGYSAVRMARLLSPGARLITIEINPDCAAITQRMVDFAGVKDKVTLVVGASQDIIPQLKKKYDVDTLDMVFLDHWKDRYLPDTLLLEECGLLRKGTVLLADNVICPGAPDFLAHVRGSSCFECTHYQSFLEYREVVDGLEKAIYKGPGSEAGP
Assay: Inhibition of recombinant wild-type human COMT expressed in Escherichia coli BL21 using 4-nitrocatechol-Alexa488 as substrate in presence of cofactor SAM preincubated for 1 min followed by substrate addition and measured every 60 sec up to 180 times by fluorescence based microtiter plate reader analysis
METRIC: pIC50
# pIC50 is unitless: minus log10 of the molar concentration; print number only

Completed entries (count: 2):
1) Cc1nc(C)c(-c2cc([C@H](C)c3ccccc3)[nH]n2)s1    6.15
2) COc1ccc(C2(c3cc(-c4sc(C)nc4C)n[nH]3)CC2)cc1    7.12

// field: pIC50; key: `Cc1nc(C)c(-c2cc(Cc3ccc(-c4ccccc4)cc3)[nH]n2)s1` ; value = 5.49

// field: pIC50; key: `Cc1nc(C)c(-c2cc(CCCc3ccccc3)[nH]n2)s1` ; value = 4.47

// field: pIC50; key: `CCc1cc(-c2sc(C)nc2C)n[nH]1` ; value = 4.70

// field: pIC50; key: `Cc1nc(C)c(-c2cc(Cc3ccc(-c4cnn(C)c4)cc3)[nH]n2)s1` ; value = 5.89

// field: pIC50; key: `Cc1nc(C)c(-c2cc(-c3ccccc3)[nH]n2)s1` ; value = 3.89

* * *

Assay: Distribution coefficient, log D of compound in octanol and water at pH 7.4
Assay type: physicochemical
Examples of compounds with documented logD follow.
Reply briefly: the number, and no unit.

Completed entries (count: 10):
1) COc1ccc([C@H](C)c2cc(-c3sc(C)nc3C)n[nH]2)cc1    3.9
2) COc1ccc([C@@H](C)c2cc(-c3sc(C)nc3C)n[nH]2)cc1    4
3) COc1ccc(Cc2cc(-c3sc(C)nc3C)n[nH]2)cc1    3.7
4) CCc1cc(-c2sc(C)nc2C)n[nH]1    2.6
5) Cc1nc(C)c(-c2cc(C(C)c3ccccc3)[nH]n2)s1 (centres undefined)    3.9
6) Cc1nc(C)c(-c2cc(CCc3ccccc3)[nH]n2)s1    4
7) CCC(c1ccccc1)c1cc(-c2sc(C)nc2C)n[nH]1 (centres undefined)    4.3
8) Cc1nc(C)c(-c2cc(CCCc3ccccc3)[nH]n2)s1    4.4
9) COc1ccc(C2(c3cc(-c4sc(C)nc4C)n[nH]3)CC2)cc1    4.1
10) Cc1nc(C)c(-c2cc(C(C)(C)c3ccccc3)[nH]n2)s1    4.1

// field: logD; key: `Cc1nc(C)c(-c2cc(Cc3ccccc3)[nH]n2)s1` ; value = 3.6

// field: logD; key: `Cc1nc(C)c(-c2cc(Cc3ccc(-c4cnn(C)c4)cc3)[nH]n2)s1` ; value = 3.9

// field: logD; key: `Cc1nc(C)c(-c2cc(C3(c4ccccc4)CC3)[nH]n2)s1` ; value = 4.2

// field: logD; key: `Cc1nc(C)c(-c2cc([C@H](C)c3ccccc3)[nH]n2)s1` ; value = 4

* * *

Experiment: Solubility of compound
Assay type: physicochemical
METRIC: solubility (µg/mL)
Response body: numeric value in µg/mL, unit text excluded.

Completed entries (count: 8):
1) Cc1nc(C)c(-c2cc(Cc3ccccc3)[nH]n2)s1    15
2) CCC(c1ccccc1)c1cc(-c2sc(C)nc2C)n[nH]1 (stereo not drawn)    24
3) Cc1nc(C)c(-c2cc(C3(c4ccccc4)CC3)[nH]n2)s1    1
4) COc1ccc(C2(c3cc(-c4sc(C)nc4C)n[nH]3)CC2)cc1    2
5) Cc1nc(C)c(-c2cc(CCCc3ccccc3)[nH]n2)s1    8
6) Cc1nc(C)c(-c2cc(C(C)(C)c3ccccc3)[nH]n2)s1    4
7) COc1ccc([C@H](C)c2cc(-c3sc(C)nc3C)n[nH]2)cc1    5
8) COc1ccc([C@@H](C)c2cc(-c3sc(C)nc3C)n[nH]2)cc1    5

// field: solubility; key: `Cc1nc(C)c(-c2cc([C@H](C)c3ccccc3)[nH]n2)s1` ; value = 5

// field: solubility; key: `Cc1nc(C)c(-c2cc(Cc3ccc(-c4cnn(C)c4)cc3)[nH]n2)s1` ; value = 4
